All figures here come from ChEMBL document CHEMBL4251622.

target: Serine/threonine-protein kinase PLK1 (Homo sapiens, UniProt P53350); assay: Inhibition of full length human PLK1 at 20 uM using casein as substrate after 40 mins in presence of [gamma-33P]-ATP by radiometric assay relative to control
Sequence (P53350 whole entry): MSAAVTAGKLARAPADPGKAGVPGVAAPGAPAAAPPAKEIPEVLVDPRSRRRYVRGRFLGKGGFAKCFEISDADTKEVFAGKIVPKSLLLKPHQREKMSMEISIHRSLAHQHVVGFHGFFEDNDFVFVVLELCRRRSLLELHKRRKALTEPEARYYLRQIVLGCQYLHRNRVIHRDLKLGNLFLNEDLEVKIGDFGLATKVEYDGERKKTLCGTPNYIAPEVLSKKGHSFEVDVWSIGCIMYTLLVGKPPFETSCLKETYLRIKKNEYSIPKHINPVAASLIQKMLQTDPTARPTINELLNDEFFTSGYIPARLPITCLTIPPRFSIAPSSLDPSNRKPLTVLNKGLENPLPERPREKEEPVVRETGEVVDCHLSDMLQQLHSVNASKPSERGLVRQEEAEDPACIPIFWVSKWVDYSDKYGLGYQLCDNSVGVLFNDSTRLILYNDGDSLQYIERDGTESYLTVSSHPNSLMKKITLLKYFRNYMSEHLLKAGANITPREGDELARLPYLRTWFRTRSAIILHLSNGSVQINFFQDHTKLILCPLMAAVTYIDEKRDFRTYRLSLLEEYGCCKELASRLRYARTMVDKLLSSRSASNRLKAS
RECORDED_METRIC: inhibition (%)
Number in %, nothing else.

// CCNc1cc(-c2ccc(NC(=O)Nc3ccc(OC)cc3)cc2F)ccn1 : inhibition value = 47.1

// CCNc1cc(-c2ccc(NC(=O)Nc3c(C)cccc3C)cc2OC)ccn1 : inhibition value = 54.4

// CCNc1cc(-c2ccc(NC(=O)Nc3ccc(C)cc3)cc2C(F)(F)F)ccn1 : inhibition value = 42.6

// O=C(Nc1cccc(Cl)c1)Nc1ccc(-c2ccnc(NCC3CC3)c2)c(C(F)(F)F)c1 : inhibition value = 63.8

// CCNc1cc(-c2ccc(NC(=O)Nc3cccc(Cl)c3)cc2C)ccn1 : inhibition value = 82.7

Let's switch to this compound now.
// CCNc1cc(-c2ccc(NC(=O)Nc3cc(C(F)(F)F)cc(C(F)(F)F)c3)cc2C(F)(F)F)ccn1 : inhibition value = 66.1

---

molecular target: Serine/threonine-protein kinase PLK1 (Homo sapiens, UniProt P53350); test: Inhibition of full length human PLK1 at 20 uM using casein as substrate after 40 mins in presence of [gamma-33P]-ATP by radiometric assay relative to control
RECORDED_METRIC: inhibition
Include the unit after the number when you answer.

// CCCNc1cc(-c2ccc(NC(=O)Nc3cccc(Cl)c3)cc2C(F)(F)F)ccn1 : inhibition value = 63%

// CCNc1cc(-c2ccc(NC(=O)Nc3ccc(OC)cc3)cc2OC)ccn1 : inhibition value = 31.1%

// CCNc1cc(-c2ccc(NC(=O)Nc3cccc(Cl)c3)cc2F)ccn1 : inhibition value = 72.7%

// CCNc1cc(-c2ccc(NC(=O)Nc3cccc4ccccc34)cc2C(F)(F)F)ccn1 : inhibition value = 54.1%

// CCNc1cc(-c2ccc(NC(=O)Nc3cccc(Cl)c3)cc2C(F)(F)F)ccn1 : inhibition value = 94.9%

// CCNc1cc(-c2ccc(NC(=O)Nc3ccc(C)cc3)cc2C)ccn1 : inhibition value = 47.5%

// CCNc1cc(-c2ccc(NC(=O)Nc3ccccc3Cl)cc2OC)ccn1 : inhibition value = 53.6%

// CCNc1cc(-c2ccc(NC(=O)Nc3cccc(Cl)c3)cc2OC)ccn1 : inhibition value = 46.4%

New cases:
// CCNc1cc(-c2ccc(NC(=O)Nc3ccc(C(F)(F)F)cc3)cc2C(F)(F)F)ccn1 : inhibition value = 82.9%

// O=C(Nc1ccc(C(F)(F)F)cc1)Nc1ccc(-c2ccnc(NCC3CC3)c2)c(C(F)(F)F)c1 : inhibition value = 53.4%

---

target: Eukaryotic elongation factor 2 kinase (Homo sapiens) (UniProt O00418); experiment: Inhibition of GST-tagged EEF2K (unknown origin) at 20 uM using biotinylated EEF2 peptide substrate by HTRF assay relative to control
Sequence (O00418 whole entry): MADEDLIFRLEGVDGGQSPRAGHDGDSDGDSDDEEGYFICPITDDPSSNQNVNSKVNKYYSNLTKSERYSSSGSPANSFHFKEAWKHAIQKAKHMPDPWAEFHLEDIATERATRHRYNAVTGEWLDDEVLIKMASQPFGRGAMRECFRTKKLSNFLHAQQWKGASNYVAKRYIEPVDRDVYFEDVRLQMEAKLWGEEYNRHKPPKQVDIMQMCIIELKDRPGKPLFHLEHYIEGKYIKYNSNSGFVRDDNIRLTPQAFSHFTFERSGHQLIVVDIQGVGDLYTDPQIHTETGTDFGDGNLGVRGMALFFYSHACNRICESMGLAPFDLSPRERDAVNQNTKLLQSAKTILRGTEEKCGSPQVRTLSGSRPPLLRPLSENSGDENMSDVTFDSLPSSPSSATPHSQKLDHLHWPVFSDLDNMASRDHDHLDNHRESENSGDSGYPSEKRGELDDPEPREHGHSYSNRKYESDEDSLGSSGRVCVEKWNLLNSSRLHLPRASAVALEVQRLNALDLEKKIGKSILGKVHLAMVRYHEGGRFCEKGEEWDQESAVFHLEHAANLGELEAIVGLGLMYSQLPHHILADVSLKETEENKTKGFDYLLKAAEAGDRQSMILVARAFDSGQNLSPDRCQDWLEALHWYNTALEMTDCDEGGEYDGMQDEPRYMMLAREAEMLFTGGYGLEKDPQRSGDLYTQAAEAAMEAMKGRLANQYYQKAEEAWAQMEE
RECORDED_METRIC: inhibition

Past entries and their recorded results:
// CCNc1cc(-c2ccc(NC(=O)Nc3cccc(Cl)c3)cc2OC)ccn1 : inhibition value = 30.6%

// CCNc1cc(-c2ccc(NC(=O)Nc3ccc(C(F)(F)F)cc3)cc2C)ccn1 : inhibition value = 55.3%

// CCNc1cc(-c2ccc(NC(=O)Nc3ccccc3Cl)cc2OC)ccn1 : inhibition value = 6.4%

New cases:
// CCNc1cc(-c2ccc(NC(=O)Nc3ccc(C(F)(F)F)cc3)cc2C(F)(F)F)ccn1 : inhibition value = 76.3%

// CCCNc1cc(-c2ccc(NC(=O)Nc3cccc(Cl)c3)cc2C(F)(F)F)ccn1 : inhibition value = 38.2%

// CCNc1cc(-c2ccc(NC(=O)Nc3ccc(OC)cc3)cc2OC)ccn1 : inhibition value = 9%
